Values were extracted from ChEMBL document CHEMBL5724796.

Assay target: Fibroblast growth factor receptor 2 (Homo sapiens)
Condition details: Compound concentration 20.0 uM
Description: Thermal Shift Assay. Domain: start/stop: T457-E768
Item-by-item account of ΔTm

| Structure string | Unit spec | ΔTm |
| --- | --- | --- |
| C=C(C)[C@@H](CC=C(C)C)C[C@@]12C[C@@H](CC=C(C)C)C(C)(C)[C@@](CC=C(C)C)(C(=O)C(C(=O)c3ccc(O)c(O)c3)=C1O)C2=O | °C | -5.95 |
| CCN(CC)C(=O)/C(C#N)=C/c1cc(O)c(O)c([N+](=O)[O-])c1 | °C | 0.06 |
| Cc1[nH]c2c(N3CCCCC3)c(-c3ccccc3)nn2c(=O)c1-c1ccc(O)cc1 | °C | 0.5 |
| O=C(CCCCCCNC(=O)c1cnc(N(c2ccccc2)c2ccccc2Cl)nc1)NO | °C | 0.65 |

###

Assay target: Peregrin (Homo sapiens) (UniProt P55201)
Sequence (whole entry): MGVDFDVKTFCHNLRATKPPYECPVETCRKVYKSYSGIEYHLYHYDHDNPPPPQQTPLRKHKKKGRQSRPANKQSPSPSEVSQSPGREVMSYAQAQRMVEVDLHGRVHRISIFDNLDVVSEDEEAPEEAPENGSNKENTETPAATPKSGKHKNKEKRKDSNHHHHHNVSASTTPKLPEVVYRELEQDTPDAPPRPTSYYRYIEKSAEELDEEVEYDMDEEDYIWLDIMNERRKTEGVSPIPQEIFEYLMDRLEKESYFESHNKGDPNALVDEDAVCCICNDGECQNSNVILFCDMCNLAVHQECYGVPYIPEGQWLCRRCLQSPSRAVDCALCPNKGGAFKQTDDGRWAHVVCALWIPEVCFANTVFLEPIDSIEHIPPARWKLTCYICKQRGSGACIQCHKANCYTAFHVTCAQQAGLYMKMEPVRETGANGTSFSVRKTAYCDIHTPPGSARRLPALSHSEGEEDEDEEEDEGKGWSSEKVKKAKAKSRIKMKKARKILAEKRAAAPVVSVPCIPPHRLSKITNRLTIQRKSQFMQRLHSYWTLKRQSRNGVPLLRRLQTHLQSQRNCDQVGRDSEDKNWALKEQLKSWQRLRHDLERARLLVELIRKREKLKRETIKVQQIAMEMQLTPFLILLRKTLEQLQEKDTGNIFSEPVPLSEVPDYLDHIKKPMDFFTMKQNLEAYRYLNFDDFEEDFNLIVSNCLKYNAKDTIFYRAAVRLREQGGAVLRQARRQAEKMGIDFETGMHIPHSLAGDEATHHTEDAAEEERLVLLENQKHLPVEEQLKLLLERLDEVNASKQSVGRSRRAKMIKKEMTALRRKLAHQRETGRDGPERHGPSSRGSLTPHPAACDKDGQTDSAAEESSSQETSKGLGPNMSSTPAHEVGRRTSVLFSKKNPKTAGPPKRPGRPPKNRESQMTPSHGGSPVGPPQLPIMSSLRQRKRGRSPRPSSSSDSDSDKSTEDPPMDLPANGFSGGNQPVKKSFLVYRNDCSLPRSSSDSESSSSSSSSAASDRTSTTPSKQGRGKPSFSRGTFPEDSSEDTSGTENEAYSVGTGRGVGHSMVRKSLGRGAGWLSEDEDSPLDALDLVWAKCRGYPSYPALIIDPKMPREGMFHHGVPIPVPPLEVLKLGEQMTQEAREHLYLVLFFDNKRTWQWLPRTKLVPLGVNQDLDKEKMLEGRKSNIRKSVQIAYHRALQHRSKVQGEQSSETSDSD
Condition details: Compound concentration 20.0 uM
Non-standard residues stand in square brackets, D forms with d. Residues, ends and D or L forms follow the SMILES beside them. *: point of attachment. Nle = CCCC[C@H](N)C(=O)O; CH2Cl = ClC*
Item-by-item account of ΔTm

| Molecule | ΔTm, °C |
| --- | --- |
| CC(=O)O[C@]1(C(C)=O)CC[C@H]2[C@@H]3CCC4=CC(=O)CCC4=C3[C@@H](c3ccc(N(C)C)cc3)C[C@@]21C | -2.65 |
| CC(=O)N[C@@H](Cc1ccccc1)C(=O)N[C@@H](CC(C)C)C(=O)N[C@H](C(=O)N[C@@H](CC(=O)O)C(=O)CCl)[C@@H](C)O (Ac-FLTD-CH2Cl) | -1.18 |
| CCCC[C@@H](C=O)NC(=O)[C@H](CC(C)C)NC(=O)[C@H](CC(C)C)NC(C)=O (Ac-Leu-Leu-[Nle]-aldehyde) | -1.4 |
| CCC(CC)N(CCN(C)C(=O)CCC(=O)O)Cc1cccc(C(=O)Nc2sc3c(c2C(=O)c2cnn(-c4ccc(Cl)c(C(F)(F)F)c4)c2)CCC(C)(C)C3)c1 | -1.97 |
| CC(C)(C)OC(=O)Nc1ccc(CNc2nccc(Nc3cc(C(=O)OC(C)(C)C)[nH]n3)n2)cc1 | -1.32 |
| CCNC(=O)c1cc2c(-c3cc(C(C)(C)O)ccc3Oc3c(C)cc(F)cc3C)cn(C)c(=O)c2[nH]1 | 1.94 |
| C[C@H](c1nc2c(cnn2C2CCOCC2)c(=O)[nH]1)N1CC(Oc2ccccc2)C1 | 2.25 |

###

Assay target: Fibroblast growth factor receptor 2 (Homo sapiens) (UniProt P21802)
Sequence (P21802 22-821 limits assumed): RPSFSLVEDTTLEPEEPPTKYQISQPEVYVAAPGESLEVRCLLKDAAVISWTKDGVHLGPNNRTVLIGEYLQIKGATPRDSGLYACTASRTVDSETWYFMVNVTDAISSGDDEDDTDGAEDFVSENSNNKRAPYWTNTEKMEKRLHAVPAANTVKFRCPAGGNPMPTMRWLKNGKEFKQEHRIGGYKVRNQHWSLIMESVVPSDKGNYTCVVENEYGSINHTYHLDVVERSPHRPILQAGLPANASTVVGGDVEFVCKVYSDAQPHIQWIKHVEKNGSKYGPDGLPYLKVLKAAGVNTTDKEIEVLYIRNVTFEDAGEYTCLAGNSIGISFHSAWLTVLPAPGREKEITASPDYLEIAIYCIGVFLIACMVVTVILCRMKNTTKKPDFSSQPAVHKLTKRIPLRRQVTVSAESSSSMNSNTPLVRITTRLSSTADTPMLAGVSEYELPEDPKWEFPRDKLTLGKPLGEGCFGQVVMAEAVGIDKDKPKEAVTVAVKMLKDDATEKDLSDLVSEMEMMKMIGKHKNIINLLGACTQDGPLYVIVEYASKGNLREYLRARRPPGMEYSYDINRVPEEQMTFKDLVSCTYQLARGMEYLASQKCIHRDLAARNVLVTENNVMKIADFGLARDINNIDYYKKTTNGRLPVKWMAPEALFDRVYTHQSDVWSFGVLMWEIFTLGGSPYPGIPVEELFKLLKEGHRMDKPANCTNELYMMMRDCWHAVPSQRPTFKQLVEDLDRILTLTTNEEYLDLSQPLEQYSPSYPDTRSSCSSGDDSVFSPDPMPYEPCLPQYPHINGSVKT
Condition details: Compound concentration 20.0 uM
Non-standard residues stand in square brackets, D forms with d. Residues, ends and D or L forms follow the SMILES beside them. *: point of attachment. Tyr(3-Cl) = N[C@@H](Cc1ccc(O)c(Cl)c1)C(=O)O; Benzoyl(3,5-Cl2) = O=C(c1cc(Cl)cc(Cl)c1)*; Lys(Et2) = CCN(CC)CCCC[C@H](N)C(=O)O; Gly(cPent) = N[C@H](C(=O)O)C1CCCC1; NH(propargyl) = C#CCN*
Note to self: ΔTm under 0.2 °C means met, ties and anything higher get not met.

| Compound | Qualitative label |
| --- | --- |
| O=C(NO)c1ccc(CN(c2cnccn2)c2cnccn2)cc1 | met |
| O=C(NO)C(c1ccc(-c2ncc(C(F)(F)F)cn2)cc1)c1ccccc1F (stereo not drawn) | met |
| C#CCNC(=O)[C@H](CO)NC(=O)[C@H](CCCCN(CC)CC)NC(=O)[C@@H](NC(=O)[C@@H](NC(=O)[C@H](Cc1ccc(O)c(Cl)c1)NC(=O)c1cc(Cl)cc(Cl)c1)C1CCCC1)[C@@H](C)CC ({Benzoyl(3,5-Cl2)}-[Tyr(3-Cl)][Gly(cPent)]I[Lys(Et2)]S-{NH(propargyl)}) | met |
| Cc1[nH]nc(C(F)(F)F)c1Cc1sc2c(c1C(=O)N1C[C@](C)(O)CO1)c(=O)n(C)c(=O)n2C(C)C | not met |
| Nc1ccc(-c2cccs2)cc1NC(=O)c1ccc(NC=O)cc1 | met |
| COCc1nc2cnc3cc(-c4c(C)noc4C)c(OC[C@H]4CCNC4)cc3c2n1[C@H](C)c1ccccc1 | met |
| CCCn1/c(=N/C(=O)c2cccc(C(N)=O)c2)[nH]c2ccccc21 | not met |
| CC(C)n1nc(-c2cc3cc(O)ccc3[nH]2)c2c(N)ncnc21 | not met |
| O=C(NO)c1ccc(CN2CCCc3cc(Cl)ccc32)cc1 | not met |
| CS(=O)(=O)c1ccc(Oc2cc(F)cc(C#N)c2)c2c1[C@H](O)C(F)(F)C2 | met |
| COc1cc2c(cc1OC)[C@H]1C[C@@H](O)[C@H](CC(C)C)CN1CC2 | not met |
| O=C1COc2c(cccc2[C@@H](O)CNCCN(C(=O)CCNCCc2ccc(Cl)c(Cl)c2)C2CCCCC2)N1 | not met |
| Nc1cccc(Nc2ncc(-c3ccc(Cl)cc3)o2)c1 | not met |
| CCCN(CCC)c1ccc(C=O)cc1Br | not met |
| C[C@@H]1OC(=O)NN=C1c1ccc(-c2ccc(F)cc2)c(C(F)(F)F)c1 | met |
| COc1cc(C(=O)NCC2(N(C)C)CCCC2)cc(OC)c1OCc1ccccc1 | met |
| CC[C@H](C)[C@H](NC(=O)[C@H](CCC(=O)O)NC(=O)[C@@H](NC(C)=O)C(C)C)C(=O)N[C@H](C=O)CC(=O)O (Ac-VEID-aldehyde) | met |

###

Assay target: Fibroblast growth factor receptor 2 (Homo sapiens)
Condition details: Compound concentration 20.0 uM

| Molecule | Assay target | ΔTm / °C |
| --- | --- | --- |
| O=C(O)C1=CCCN(CCON=C(c2ccccc2)c2ccccc2)C1 | Fibroblast growth factor receptor 2 (Homo sapiens) | 0.48 |
| O=C1CCc2cc(OCCCCc3nnnn3C3CCCCC3)ccc2N1 | Fibroblast growth factor receptor 2 (Homo sapiens) | -0.38 |
| Cc1cc(C)nc(SCC(=O)Nc2ncc(Cc3cccc4ccccc34)s2)n1 | Fibroblast growth factor receptor 2 (Homo sapiens) | -1.85 |
| CC(C)CCn1c(CN2CCN(C(=O)C3CC3)CC2)nc2c1c(=O)n(C)c(=O)n2C | Fibroblast growth factor receptor 2 (Homo sapiens) | -0.8 |
| CS(=O)(=O)Nc1ccc2oc3c(OC(F)F)ccc(C(=O)Nc4c(Cl)cncc4Cl)c3c2c1 | Fibroblast growth factor receptor 2 (Homo sapiens) | -0.38 |
| CC(=Cc1cc(C)ccc1C=C(C)C(=O)NC(=N)N)C(=O)N=C(N)N | Fibroblast growth factor receptor 2 (Homo sapiens) | -0.04 |
| Cc1c(CN2CCC(Nc3ncnc4sc(CC(F)(F)F)cc34)CC2)ccc2c1cc(C#N)n2Cc1cn[nH]c1 | Fibroblast growth factor receptor 2 (Homo sapiens) | -1.27 |
| O=C(CN1CCN(c2ccc(F)cn2)CC1)Nc1nc2c(s1)CCCC2 | Fibroblast growth factor receptor 2 (Homo sapiens) | -0.21 |
| COc1ccc(C2C(C#N)=C(N)OC3=C2C(=O)CC(c2cccc4ccccc24)C3)cc1 (centres undefined) | Fibroblast growth factor receptor 2 (Homo sapiens) | -0.92 |
| CC(=O)N[C@@H](CCCCNC(=O)CSCCNC(=O)CCNC(=O)[C@H](O)C(C)(C)COP(=O)(O)OP(=O)(O)OC[C@H]1O[C@@H](n2cnc3c(N)ncnc32)[C@H](O)[C@@H]1OP(=O)(O)O)C(N)=O | Fibroblast growth factor receptor 2 (Homo sapiens) | 0.51 |
| CC(C)(C)C1CCN(C(=O)n2ncc(C(O)(c3ccccc3)c3ccccc3)n2)CC1 | Fibroblast growth factor receptor 2 (Homo sapiens) | -3.22 |
| CNCCCN1c2ccccc2CCc2ccccc21 | Fibroblast growth factor receptor 2 (Homo sapiens) | -0.25 |
| Cn1c(=O)c2c(nc(N3CCNCC3)n2Cc2nnc(-c3ccc(Cl)c(Cl)c3)o2)n(C)c1=O | Fibroblast growth factor receptor 2 (Homo sapiens) | 0.08 |
| CC(=O)Nc1ccc(C(=O)Nc2ccc(F)cc2N)cc1 | Fibroblast growth factor receptor 2 (Homo sapiens) | 0.76 |
| CNCC[C@@H](Oc1ccccc1C)c1ccccc1 | Fibroblast growth factor receptor 2 (Homo sapiens) | 0.34 |
| Cc1sc(C(=O)c2cncnc2N[C@@H]2C[C@H](COS(N)(=O)=O)[C@@H](O)C2)cc1[C@@H]1NCCc2ccc(Cl)cc21 | Fibroblast growth factor receptor 2 (Homo sapiens) | 0.33 |
| CCn1ncc2c(NC3CCOCC3)c(-c3nnc(Cc4sc(C)nc4C)o3)cnc21 | Fibroblast growth factor receptor 2 (Homo sapiens) | 0.47 |
| CN(C)CCCN(CC[C@H](N)C(=O)O)C[C@H]1O[C@@H](n2cnc3c(N)ncnc32)[C@H](O)[C@@H]1O | Fibroblast growth factor receptor 2 (Homo sapiens) | -1.19 |
| COC(=O)C[C@@H]1N=C(c2ccc(Cl)cc2)c2c(sc(C)c2C)-n2c(C)nnc21 | Fibroblast growth factor receptor 2 (Homo sapiens) | 0.53 |
